EXPERIMENTAL DETAILS: Plasma KBU2046 concentration after dosing in chow
Assay type: in vivo, athymic mice
CONDITION DETAILS: Balb/c athymic, mouse, oral, doses that decreased metastasis, read-out: plasma concentrations
Procedure: Cohorts of N=12 athymic mice bearing human PCa PC3-M cell orthotopic implants (a), or of N=5 non-tumor bearing athymic mice (b), were treated with KBU2046 incorporated into chow, and resultant lung metastasis (a) or plasma KBU2046 concentration (b) measured. Values are the mean±SEM. The relationship between dose and metastasis was evaluated by two-sided ANOVA (a). FIG. 2c a comprehensive characterization of KBU2046 pharmacokinetics. […] KBU2046 Quantification and Pharmacokinetics. […]
METRIC NAME: concentration at 35 days

concentration at 35 days for O=C1c2ccccc2OCC1c1ccc(F)cc1 (racemic) [KBU2046, (±)-3(4-fluorophenyl)chroman-4-one] is 1.1 to 24 nM
